- System: TK-10 renal
- protocol.notes: NCI tumour cell line growth inhibition, 48 h
assay.readout: TGI

[[record]]
compound = "NC1=NN(c2ccccc2)C(=O)C1/C(=N\\NC(=O)c1cc2ccccc2cc1O)C(=O)Nc1cccc(C(F)(F)F)c1 (stereo not given)"
assay_readout = "TGI"
result = "> 100 µM"

[[record]]
compound = "CCOC(=O)C(=[N+]=[N-])C(=O)CN1C(=O)C2CC(C)=C(C)CC2C1O (stereo not given)"
assay_readout = "TGI"
result = "> 100 µM"

[[record]]
compound = "CC(Oc1ccc(OCC2CCCCC2)cc1)C(=O)NCCO (stereo not given)"
assay_readout = "TGI"
result = "> 100 µM"

[[record]]
compound = "N#Cc1ccsc1NC(=O)COC(=O)c1cccc(S(=O)(=O)N2CCc3ccccc32)c1"
assay_readout = "TGI"
result = "> 100 µM"

[[record]]
compound = "Cc1ccc(NCC(=O)N2CC(=O)Nc3ccccc32)cc1"
assay_readout = "TGI"
result = "> 100 µM"

[[record]]
compound = "Clc1cc2c(nn1)Nc1ccccc1S2"
assay_readout = "TGI"
result = "> 100 µM"

[[record]]
compound = "O=c1c2ccccc2nc2n1C(c1ccc([N+](=O)[O-])cc1)C2(c1ccccc1)c1ccccc1 (stereo not given)"
assay_readout = "TGI"
result = "> 100 µM"

[[record]]
compound = "O=C(NNC(=S)Nc1ccc(Br)cc1)c1cc(-c2ccccc2)nc2ccccc12"
assay_readout = "TGI"
result = "42.2 µM"

[[record]]
compound = "COC(=O)C1(C(=O)OC)N=C(C)OC1c1ccccn1 (stereo not given)"
assay_readout = "TGI"
result = "> 100 µM"

[[record]]
compound = "Nn1c(CCCCCCCCc2nnc(COc3ccccc3)n2N)nnc1COc1ccccc1"
assay_readout = "TGI"
result = "> 100 µM"

[[record]]
compound = "Cn1c(=O)c2ccc(-c3ccc(Br)cc3)nc2n(C)c1=O"
assay_readout = "TGI"
result = "> 100 µM"

[[record]]
compound = "O=S(=O)(c1ccc(Br)cc1)N1CCN(S(=O)(=O)c2ccc(Br)cc2)CC1"
assay_readout = "TGI"
result = "> 100 µM"

[[record]]
compound = "CCCCCc1cc[n+](CC(=O)c2ccc([N+](=O)[O-])cc2)cc1"
assay_readout = "TGI"
result = "33.7 µM"

[[record]]
compound = "COc1cccc(CCNc2c(C#N)c3nc4ccccc4n3c3ccccc23)c1"
assay_readout = "TGI"
result = "> 100 µM"

[[record]]
compound = "Cc1ccc(C2SCC(=O)N2c2ccc(-c3ccc(-n4c(-c5ccccc5)nc5ccccc5c4=O)cc3)cc2)cc1 (stereo not given)"
assay_readout = "TGI"
result = "> 100 µM"

[[record]]
compound = "CSCC[C@H](NC(=O)[C@H](CC(C)C)NC(=O)[C@@H](Cc1ccccc1)NC(=O)CNC(=O)[C@@H](NC(=O)[C@H](C)NC(=O)[C@H](Cc1c[nH]c2ccccc12)NC(=O)[C@H](CCC(N)=O)NC(=O)[C@H](N)CC(N)=O)C(C)C)C(N)=O"
assay_readout = "TGI"
result = "> 12.5 µM"

[[record]]
compound = "Cc1cc(S(=O)(=O)NC2=NC(c3ccccc3)c3cc(Cl)ccc3N2)c(S)cc1Cl (stereo not given)"
assay_readout = "TGI"
result = "> 100 µM"

[[record]]
compound = "COC(=O)NN1C(C)=C(C(=O)OC)C2(C#N)C(C(=O)OC)=C(C)N(NC(=O)OC)C12N (stereo not given)"
assay_readout = "TGI"
result = "> 100 µM"

[[record]]
compound = "O=C1CCCC(=O)N1n1c(Cc2ccccc2)n[nH]c1=O"
assay_readout = "TGI"
result = "> 100 µM"

[[record]]
compound = "CCC(CCC(C)C1CCC2C3CC=C4CC(OC5OC(CO)C(O)C(O)C5O)CCC4(C)C3CCC12C)C(C)C (stereo not given)"
assay_readout = "TGI"
result = "> 100 µM"

[[record]]
compound = "O=C1C(=O)c2ccccc2C(O)=C1CCCc1ccc(C2CCCC2)cc1"
assay_readout = "TGI"
result = "34.1 µM"

[[record]]
compound = "COC(CC1(/C=C/O[Si](C(C)C)(C(C)C)C(C)C)C(=O)N(COCC[Si](C)(C)C)c2ccccc21)OC (stereo not given)"
assay_readout = "TGI"
result = "> 100 µM"

[[record]]
compound = "O=C(/C=C/c1ccccc1Cl)c1cccc2ccccc12"
assay_readout = "TGI"
result = "29.2 µM"

[[record]]
compound = "c1ccc(Nc2nc(-c3ccccn3)cs2)nc1"
assay_readout = "TGI"
result = "> 100 µM"

[[record]]
compound = "CCCCc1ccc(-n2sc3ncc([N+](=O)[O-])cc3c2=O)cc1"
assay_readout = "TGI"
result = "61.9 µM"

[[record]]
compound = "Cc1cc2c(C(C)C)c(O)c(O)c(C=NCCO)c2c(O)c1-c1c(C)cc2c(C(C)C)c(O)c(O)c(C=NCCO)c2c1O"
assay_readout = "TGI"
result = "18.4 µM"

[[record]]
compound = "C[C@]12CC[C@H]3[C@@H](CCC4=CC(=O)CC[C@@]43C)[C@@H]1CC[C@@H]2C(=O)COS(=O)(=O)c1ccc(Br)cc1"
assay_readout = "TGI"
result = "34.5 µM"

[[record]]
compound = "Cc1cc(=O)[nH]c2cc(NC(=O)C(CCCN=C(N)N)NC(=O)OCc3ccccc3)ccc12 (stereo not given)"
assay_readout = "TGI"
result = "> 100 µM"

[[record]]
compound = "Cc1ccc(C2N=C(N)NC3=C2CCOc2c3ccc3ccccc23)cc1 (stereo not given)"
assay_readout = "TGI"
result = "> 80.3 µM"

[[record]]
compound = "CC(=O)OC1CC2(C)OC(Cc3ccccc32)O1 (stereo not given)"
assay_readout = "TGI"
result = "> 100 µM"

[[record]]
compound = "COc1c2c(cc3c1OCO3)C13C=CC(OC)CC1N(CC3)C2 (stereo not given)"
assay_readout = "TGI"
result = "> 100 µM"

[[record]]
compound = "CCOC(=O)/C(C#N)=C1/Sc2c(ncn(/N=C/c3ccc(OC)cc3)c2=O)N1c1ccccc1"
assay_readout = "TGI"
result = "> 100 µM"

[[record]]
compound = "CCN1C(=O)/C(=C2\\SC(c3ccccc3)(c3ccccc3)c3ccccc32)SC1=S"
assay_readout = "TGI"
result = "> 100 µM"

[[record]]
compound = "CCOC(=O)c1ccc2c(c1)nc(/C=C/c1ccc(Cl)cc1)n2-c1cc(C(C)(C)C)[nH]n1"
assay_readout = "TGI"
result = "7.2 µM"

[[record]]
compound = "N=C(N)SCc1cc(Cl)cc(Cl)c1O"
assay_readout = "TGI"
result = "35.4 µM"

[[record]]
compound = "CN(C)CCC(CCN(C)C)=NOC(=O)c1ccccc1"
assay_readout = "TGI"
result = "> 100 µM"

[[record]]
compound = "Cc1cc(C)c2c(c1)C1=NCCN1C2(O)c1ccc(Cl)cc1 (stereo not given)"
assay_readout = "TGI"
result = "15.5 µM"

[[record]]
compound = "CC1=C(C(=O)Nc2ccc3[nH]ncc3c2)C(c2ccc(Cl)c(Cl)c2)CC(=O)N1 (stereo not given)"
assay_readout = "TGI"
result = "> 25 µM"

[[record]]
compound = "Cc1cc(C)n2c(-c3ccccc3)c(C)cc2n1"
assay_readout = "TGI"
result = "> 100 µM"

[[record]]
compound = "NC(=S)N/N=C/c1ccc(N)cn1"
assay_readout = "TGI"
result = "> 10 µM"

